Numbers sourced from PubChem BioAssay (NCI).

# System: MOLT-4 leukemia
# assay: NCI-60 one-dose screen, 48 h (100 = growth as untreated, 0 = no growth, -100 = all killed)
# recordedConditions: 10 µM unless noted
The panel holds about 83,000 compounds, 20% with a hit somewhere; the sample as a whole holds those more often.
quantityName: growth (%)

* Cc1c(Cl)ccc2c(C(=O)Cl)cc(-c3ccccc3)nc12 | 96.2
* Fc1ccc(/C=N/n2c(-c3cc(Cl)cc(Cl)c3Cl)nn(CNc3ccc(Cl)nn3)c2=S)cc1 | 75.1
* COc1cc2ncn3c(=O)c4c5c(sc4nc3c2cc1OC)CCCCC5 | 106
* CCCCNC(=O)Oc1ccc(/C(=C(/CC)Cc2ccccc2)c2ccc(OCCCN(C)C)cc2)cc1 | 63.4
* Nc1nc(-c2cc3c(cc2Cl)NC(=O)/C3=C/c2ccc(Cl)cc2)cs1 | 15.5
* COc1ccccc1C(OC(C)=O)OC(C)=O | 103
* COc1ccc(CCNC=O)cc1OC | 100
* O=C(N/N=C/c1ccccc1O)c1ccccc1O | 19.3
* CC(C)(C)NCC(O)COc1c(Br)c(Br)c(Br)c2c1OC(C)(C)C2 (stereo unspecified) | -56.1
* O=C1C(Cl)=C(Nc2ccccc2)C(=O)C(Cl)=C1Nc1ccccc1 | 114
* C=C1C(=O)O[C@H]2[C@H]1CC/C(COC(=O)c1ccc3ccccc3c1)=C\CC[C@@]1(C)O[C@@H]21 | -14.1
